Sourced from PubChem BioAssay AID1963321

- Tested Target: cAMP-dependent protein kinase catalytic subunit alpha (Homo sapiens)
- Procedure Text: Protein Kinase A (PKA-HiBiT) enzymatic inhibition screen - Functional assay
- Condition Details: luminescence; series mostly up to 57.5 µM
Records with an inconclusive call do not appear. The source made the active and inactive calls. The call rests on the fitted dose curve.
The reply should be one of these categories: active, inactive

Study these solved cases before continuing.
CC(C)n1nc(-c2cc3cc(O)ccc3[nH]2)c2c(N)ncnc21 inactive
Nc1ncccc1-c1nc2ccc(-c3ccccc3)nc2n1-c1ccc(C2(N)CCC2)cc1 inactive
Cc1cccc(/C=N/Nc2cc(N3CCOCC3)nc(OCCc3ccccn3)n2)c1 inactive
O=c1c(O)c(-c2ccc(O)c(O)c2)oc2cc(O)cc(O)c12 inactive
Cc1ccccc1-n1c([C@H](C)Nc2nc(N)nc3nc[nH]c23)nc2cccc(C)c2c1=O inactive

INPUT: In this assay, the call recorded for Cc1ccc(C(=O)Nc2ccc(Oc3cc4cnn(C)c4cc3-c3cn[nH]c3)c(F)c2)c(=O)n1-c1ccc(F)cc1 was what?
OUTPUT: inactive

INPUT: In this assay, the call recorded for COc1cc(N2CCN(C)CC2)ccc1Nc1nc(N)c(C(=O)c2c(Cl)cccc2Cl)s1 was what?
OUTPUT: inactive

====

- Tested Target: cAMP-dependent protein kinase catalytic subunit alpha (Homo sapiens) (UniProt P17612)
- Procedure Text: Protein Kinase A (PKA-HiBiT) enzymatic inhibition screen - Functional assay
- Condition Details: luminescence; series mostly up to 57.5 µM
- Experimental: National Center for Advancing Translational Sciences (NCATS), National Institute of Health (NIH), Maryland […] SEQUENCE No. (e.g., 1, 2, 3, etc.); […] (e.g., C. elegans, Compounds, Incubation, Read, etc.); VALUE and DESCRIPTION. […] 7. […] (Functional assay) Luminescence measured using CCD-based camera (ViewLux) with settings as follows: Exposure, 1 sec; Gain, High; Speed, Slow; Binning, 2X. […]
Results filed as inconclusive are left out. Active and inactive are the calls of the source. Calls follow the shape of the full dose curve.
The reply should be one of these categories: active, inactive

C[C@@H]1CCNC(=O)c2cc3ccc(C(=O)Nc4nc5ccccc5n4CCCN(C)C)cc3n21 inactive
Cc1nc2ccc(-n3ncc(C(=O)c4cc5ccccc5[nH]4)c3N)cc2[nH]1 inactive
COc1cc(N2CCOCC2)ccc1Nc1ncc(Cl)c(Nc2ccccc2NS(C)(=O)=O)n1 inactive

INPUT: In this assay, the call recorded for COc1cc(N2CCC(O)CC2)ccc1Nc1nc(Nc2ccccc2S(=O)(=O)C(C)C)c2[nH]cnc2n1 was what?
OUTPUT: inactive

INPUT: In this assay, the call recorded for CO[C@H]1/C=C/O[C@@]2(C)Oc3c(C)c(O)c4c(O)c(c(/C=N\N5CCN(C6CCCC6)CC5)c(O)c4c3C2=O)NC(=O)/C(C)=C\C=C\[C@H](C)[C@H](O)[C@@H](C)[C@@H](O)[C@@H](C)[C@H](OC(C)=O)[C@@H]1C was what?
OUTPUT: inactive

INPUT: In this assay, the call recorded for CCNC(=O)Nc1ccc(-c2nc3c(c(N4CCOC[C@@H]4C)n2)CCN(c2ncccn2)C3)cc1 was what?
OUTPUT: inactive

INPUT: In this assay, the call recorded for CN1CCN(CCCNc2ncc(Cl)c(-c3cc4c(C(=O)NC5CC5)cccc4s3)n2)CC1 was what?
OUTPUT: inactive

INPUT: In this assay, the call recorded for CN(c1ncccc1CNc1nc(Nc2ccc3c(c2)CC(=O)N3)ncc1C(F)(F)F)S(C)(=O)=O was what?
OUTPUT: active

INPUT: In this assay, the call recorded for Cc1cccc(C)c1-n1c(=O)c2cnc(Nc3ccc(N4CCN(C)CC4)cc3)nc2n2c3ccccc3nc12 was what?
OUTPUT: inactive
